These data points were gathered from patent US20240051975A1.

Test system: cell death induced by the NAMPT inhibitor FK866
EXPERIMENTAL PROTOCOL: Protection against cell death induced by the NAMPT inhibitor FK866 (Celltiter-Glo, cellular ATP)
Format: cell-based
CONDITIONS: AUC of dose-response curve (0.1-10 μM) relative to AUC of NAT; 10 nM FK866, 72 hours, cell viability by ATP
Label T when Relative cytoprotective activity is strictly below 0.3; otherwise label F.

1) CC(C)c1ccccc1OCC(=O)Nc1ccc(O)cc1 : F
2) CC(C)(C)c1ccccc1OCC(=O)Nc1ccc(O)c(F)c1 : F
3) COc1ccc(OCC(=O)Nc2ccc(O)cc2)c(C(C)(C)C)c1 : F
4) O=C(COc1ccccc1)Nc1ccc(O)cc1 [Compound 16, N-(4-hydroxyphenyl)-2-phenoxyacetamide] : T
5) Cc1ccccc1OCC(=O)Nc1ccc(O)cc1 : F
6) CC(C)(C)c1ccc(OCC(=O)Nc2ccc(O)cc2)cc1 : T
7) CC(C)(C)c1cccc(C#N)c1OCC(=O)Nc1ccc(O)cc1 : F
8) CC(C)(C)c1cccc(OCC(=O)Nc2ccc(O)cc2)c1 : T
9) COC(=O)c1cccc(C(C)(C)C)c1OCC(=O)Nc1ccc(O)cc1 : T

====

Below, each entry is listed with its recorded Relative cytoprotective activity.
System: cell death induced by the NAMPT inhibitor FK866
EXPERIMENTAL PROTOCOL: Protection against cell death induced by the NAMPT inhibitor FK866 (Celltiter-Glo, cellular ATP)
Type: cell-based
CONDITIONS: AUC of dose-response curve (0.1-10 μM) relative to AUC of NAT; 10 nM FK866, 72 hours, cell viability by ATP
EXPERIMENTAL READOUT: Relative cytoprotective activity

1) O=C(COc1ccccc1-c1ccccc1)Nc1ccc(O)cc1 [Compound 17] : 0.4572
2) Cc1cccc(OCC(=O)Nc2ccc(O)cc2)c1 [Compound 19] : 0.09517
3) CC(C)(C)c1ccccc1OCC(=O)Nc1ccccc1 [Compound 2] : 0.02446
4) CC(C)(C)c1cccc(CO)c1OCC(=O)Nc1ccc(O)cc1 [Compound 58] : 0.8071
5) CC(C)(C)c1cccc(CNC(=O)Nc2ccc(O)cc2)c1 [Compound 20] : 0.135
6) CC(C)(C)c1ccc(C(N)=O)cc1OCC(=O)Nc1ccc(O)cc1 [Compound 63] : 1.065
7) O=C(COc1ccccc1C(F)(F)F)Nc1ccc(O)cc1 [Compound 23] : 0.2337
8) CC(C)(C)c1cc(O)ccc1OCC(=O)Nc1ccc(O)cc1 [Compound 52] : 1.358
9) CC(C)(C)c1cc(F)ccc1OCC(=O)Nc1ccc(O)cc1 [Compound 56] : 0.9846
10) CC(C)(C)c1cccc(Br)c1OCC(=O)Nc1ccc(O)cc1 [Compound 59] : 0.5085

====

Relative activation of NAMPT activity for assorted molecules
MEASUREMENT TARGET: NAMPT (Homo sapiens)
Sequence (P43490 whole entry, species assumed): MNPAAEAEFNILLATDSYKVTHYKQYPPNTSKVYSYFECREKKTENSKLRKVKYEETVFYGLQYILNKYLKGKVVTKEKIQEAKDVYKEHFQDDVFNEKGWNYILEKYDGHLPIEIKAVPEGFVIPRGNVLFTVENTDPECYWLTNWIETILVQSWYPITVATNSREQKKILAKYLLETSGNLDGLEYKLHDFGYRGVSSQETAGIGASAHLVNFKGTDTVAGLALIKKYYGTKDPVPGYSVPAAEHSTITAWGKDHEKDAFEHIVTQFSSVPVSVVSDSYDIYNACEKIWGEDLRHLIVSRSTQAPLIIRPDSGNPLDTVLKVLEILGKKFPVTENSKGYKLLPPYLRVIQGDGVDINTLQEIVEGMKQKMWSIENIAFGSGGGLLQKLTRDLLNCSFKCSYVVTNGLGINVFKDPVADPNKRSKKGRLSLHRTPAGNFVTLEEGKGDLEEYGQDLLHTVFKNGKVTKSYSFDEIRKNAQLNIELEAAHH
EXPERIMENTAL PROTOCOL: NAMPT enzyme activity assay coupled with NMNAT1 and ADH (NADH fluorescence)
CONDITIONS: AUC of dose-response curve (0.1, 0.3, 1, 3, 10 μM) relative to AUC of NAT (NAT = 1); 1 μM NAMPT, 200 μM NAM
EXPERIMENTAL READOUT: Relative activation of NAMPT activity

1. CC(C)(C)c1ccccc1OCC(=O)Nc1ccc(C(=O)O)cc1 : −0.1619
2. CC(C)(C)c1cc(Br)ccc1OCC(=O)Nc1ccc(O)cc1 : 0.4032
3. Cc1cccc(C(C)(C)C)c1OCC(=O)Nc1ccc(O)cc1 : 0.327
4. CC(C)(C)c1ccccc1OCC(=O)Nc1ccc(O)cc1O : −0.1608
5. CC(C)(C)c1ccccc1OCC(=O)Nc1ccc(S(N)(=O)=O)cc1 : −0.2346
6. COC(=O)c1cccc(C(C)(C)C)c1OCC(=O)Nc1ccc(O)cc1 : 0.00292
7. CC(C)(C)c1ccccc1OCC(=O)Nc1ccc(-c2ccccc2)cc1 : −0.0947
8. CN(C)c1ccc(NC(=O)COc2ccccc2C(C)(C)C)cc1 : −0.1777
9. CC(C)(C)c1ccccc1OCC(=O)Nc1cccc(O)c1 : −0.1895
10. CC(C)c1ccccc1OCC(=O)Nc1ccc(O)cc1 : 1.35
11. CC(C)(C)c1ccccc1OCC(=O)Nc1ccc(S)cc1 : −0.096
12. CC(C)(C)c1ccccc1CNC(=O)Nc1ccc(O)cc1 : −0.2226
13. CC(C)(C)c1ccccc1OCC(=O)Nc1ccc(O)c(F)c1 : 0.1348
14. Cc1ccc(C(C)(C)C)c(OCC(=O)Nc2ccc(O)cc2)c1 : 0.1726
15. CC(C)(C)c1ccccc1OCC(=O)Nc1ccc(Oc2ccccc2)cc1 : −0.1409
